List of MIC tested on Escherichia coli K-12 ML-1629.
measured.endpoint: MIC (µg/mL)

| compound | result.operator | observed.value |
| --- | --- | --- |
| NC[C@H]1O[C@H](O[C@H]2[C@H](O)[C@@H](O[C@H]3O[C@H](CO)[C@@H](O)[C@H](N)[C@H]3O)[C@H](N)C[C@@H]2N)[C@H](N)[C@@H](O)[C@@H]1O [KM-B, Kanamycin B, reference compound] | > | 100 |
| CNC1C(O)C(OC2C(N)CC(N)C(OC3OC(CN)CCC3O)C2O)OC(CO)C1(C)O (stereo not drawn) | = | 3.13 |
| NC[C@@H]1CC[C@@H](N)[C@@H](O[C@H]2[C@H](O)[C@@H](O[C@H]3O[C@H](CO)[C@@H](O)[C@H](N)[C@H]3O)[C@H](N)C[C@@H]2N)O1 [DKB, Dibekacin, reference compound] | = | 1.56 |
| CNCC1CCC(N)C(OC2C(N)CC(N)C(OC3OC(CO)C(C)(O)C(NC)C3O)C2O)O1 (stereo not drawn) | = | 1.56 |
| CNC1C(O)C(OC2C(N)CC(N)C(OC3OC(CN)CCC3N)C2O)OC(CO)C1(C)O (stereo not drawn) | = | 1.56 |
| NCC1OC(OC2C(N)CC(N)C(OC3OC(CO)C(O)C(N)C3O)C2O)C(O)C(O)C1O (stereo not drawn) [KM-A, Kanamycin A, reference compound] | > | 100 |
